FYI, the data here is from patent US9340577.

- target.or.system: T1, H-2Kb (mouse)
- T1 chain 1: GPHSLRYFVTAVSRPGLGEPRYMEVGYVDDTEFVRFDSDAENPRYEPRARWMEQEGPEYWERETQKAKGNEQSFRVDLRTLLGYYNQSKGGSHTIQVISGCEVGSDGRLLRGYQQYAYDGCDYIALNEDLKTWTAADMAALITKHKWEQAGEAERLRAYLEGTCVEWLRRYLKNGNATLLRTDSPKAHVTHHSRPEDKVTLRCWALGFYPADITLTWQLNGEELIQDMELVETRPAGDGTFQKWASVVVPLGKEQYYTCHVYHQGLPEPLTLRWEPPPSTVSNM
- T1 chain 2: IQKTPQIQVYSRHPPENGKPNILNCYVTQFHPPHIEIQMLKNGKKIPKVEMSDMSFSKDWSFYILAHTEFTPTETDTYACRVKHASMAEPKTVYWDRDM
- method.summary: competition
- reported.conditions: modification not given
Labels assigned by IC50 range: bottom bin (below 10 nM), middle bin (10 nM to below 200 nM), top bin (200 nM or more)

Category lookup for the binder AAAAAANAAAM [F079.09]
top bin

// repeat for SSIEFARL [1108.07] and report
bottom bin

// repeat for AAAANAAAM [F079.08] and report
top bin

// repeat for FFYRYGFV [FluA POL1 495] and report
top bin

// repeat for RGPGRAFVTI [1087.01] and report
top bin

// repeat for GVYQFKSV [14.0018] and report
middle bin

// repeat for KNKFFSYL [22.0011] and report
middle bin

// repeat for ASNENMETM [Flu NP 366] and report
top bin

// repeat for RNPRFYNL [1079.14] and report
bottom bin

// repeat for RGYVYQGL [1079.09] and report
bottom bin

// repeat for VGLSYSQTM [14.0118] and report
middle bin

// repeat for RPQASGVYM [LCMV NP 118] and report
top bin

// repeat for IVTMFEAL [14.0008] and report
middle bin

// repeat for SVYDFYVWM [F138.03] and report
bottom bin

// repeat for RFYRTCKL [FluA POL1 465] and report
middle bin

// repeat for ANFSFRNTL [16.0031] and report
bottom bin

// repeat for SGVENPGGYCL [928.07] and report
top bin

// repeat for KMITQRTI [FluA POL1 198] and report
top bin

// repeat for SHYAFSPM [F190.04] and report
top bin

// repeat for SVYDFFVWL [F117.14] and report
bottom bin

// repeat for MNIQFTAV [FluA HA 403] and report
middle bin

// repeat for YMVPFIPL [22.0021] and report
middle bin

// repeat for FAPGYNPAL [1275.04] and report
bottom bin

// repeat for LGYDYSYL [16.0004] and report
bottom bin

// repeat for LAVLYCLL [22.0012] and report
middle bin

// repeat for ISHNFCNL [14.0011] and report
top bin

// repeat for SGPSNTPPEI [1079.06] and report
top bin

// repeat for SIQFFGEL [F079.04] and report
middle bin

// repeat for SIQFFGERAL [F079.03] and report
middle bin

// repeat for NAIVFKGL [17.0284] and report
top bin
